viability, T/C: recorded values
# System: 429239-143-T-J1-PDC complex spheroid viability;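 also: luminescence signal used as surrogate measure of viable cells; spheroids exposed to compounds for seven days before readout; 100% = DMSO vehicle control viability as luminescence relative to vehicle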
# experimentDescription: Anticancer human tumor 429239-143-T-J1-PDC patient-derived small cell lung carcinoma cell line growth inhibition [POLQ]
# conditionParameters: second compound 0.316 µM; first compound 0.1 µM; active compounds read low
Respond numerically; units are % and should not be typed.

Query: What does the data say about its viability, T/C? Entry: COc1cc2cc(C(=O)CCC(=O)O)sc2cc1OC + Nc1ccc(C#CCN(C(=O)Cc2ncc(C(F)(F)F)cc2C(F)(F)F)c2ccc(F)cc2)nn1
Response: 109

***
Query: What does the data say about its viability, T/C? Entry: C=CCn1c(=O)c2cnc(Nc3ccc(N4CCN(C)CC4)cc3)nc2n1-c1cccc(C(C)(C)O)n1 + Nc1ccc(C#CCN(C(=O)Cc2ncc(C(F)(F)F)cc2C(F)(F)F)c2ccc(F)cc2)nn1
Response: 101

Query: What does the data say about its viability, T/C? Entry: Nc1ccn(C2OC(CO)C(O)C2(F)F)c(=O)n1 (stereo unspecified) + COC1C(OC(N)=O)C(O)C(Oc2ccc3c(O)c(NC(=O)c4ccc(O)c(CC=C(C)C)c4)c(=O)oc3c2C)OC1(C)C
Response: 17.1

Query: What does the data say about its viability, T/C? Entry: CNCc1ccc(-c2[nH]c3cc(F)cc4c3c2CCNC4=O)cc1 + Nc1ccc(C#CCN(C(=O)Cc2ncc(C(F)(F)F)cc2C(F)(F)F)c2ccc(F)cc2)nn1
Response: 94.7

Query: What does the data say about its viability, T/C? Entry: COc1cc(C2c3cc4c(cc3C(OC3OC5COC(C)OC5C(O)C3O)C3COC(=O)C23)OCO4)cc(OC)c1O (stereo unspecified) + Nc1ccc(C#CCN(C(=O)Cc2ncc(C(F)(F)F)cc2C(F)(F)F)c2ccc(F)cc2)nn1
Response: 105

Query: What does the data say about its viability, T/C? Entry: CC1COCCN1c1cc(C2(S(C)(=N)=O)CC2)nc(-c2ccnc3[nH]ccc23)n1 (stereo unspecified) + COC1C(OC(N)=O)C(O)C(Oc2ccc3c(O)c(NC(=O)c4ccc(O)c(CC=C(C)C)c4)c(=O)oc3c2C)OC1(C)C
Response: 94.3
